# TEST SYSTEM: HCV NS3 helicase (Hepatitis C virus genotype 1a, UniProt P27958)
# Sequence (P27958 1192-1657 limits assumed): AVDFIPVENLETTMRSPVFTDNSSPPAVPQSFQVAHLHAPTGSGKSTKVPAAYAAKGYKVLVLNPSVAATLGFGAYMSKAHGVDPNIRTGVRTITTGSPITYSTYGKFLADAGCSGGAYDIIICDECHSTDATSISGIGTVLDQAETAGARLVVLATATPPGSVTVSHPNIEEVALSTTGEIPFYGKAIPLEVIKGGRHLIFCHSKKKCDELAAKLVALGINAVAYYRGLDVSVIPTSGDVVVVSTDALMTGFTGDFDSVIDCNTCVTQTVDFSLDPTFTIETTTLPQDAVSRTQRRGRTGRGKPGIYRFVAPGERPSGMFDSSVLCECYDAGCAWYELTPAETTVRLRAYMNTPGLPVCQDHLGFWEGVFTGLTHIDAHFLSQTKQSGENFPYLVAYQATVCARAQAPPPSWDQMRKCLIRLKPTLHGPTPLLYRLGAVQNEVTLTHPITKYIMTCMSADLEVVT
# TEST NAME: Anti-HCV NS3 helicase assay
# Assay type: biochemical
MEASURED METRIC: pIC50
As a rule, pIC50 stands for the negative log10 of the concentration, concentration in M.

Tell me the measured pIC50 of NC(=O)c1ncn([C@@H]2O[C@H](CO)[C@@H](O)[C@H]2O)n1 [Ribavirin] , please.
4.72
